Cited source: patent EP4748864A1

# assay.comment: UV absorption characteristics of component (A), UV-visible spectrophotometer
# Assay type: physicochemical
# protocol.conditions: 100 µM chloroform solution, 10-mm quartz cell; at the maximum absorption wavelength
Maximum absorption wavelength Molar absorption coefficient by entry:
experimental.readout: Maximum absorption wavelength Molar absorption coefficient

> print(dat)
                                   compound  experimental.value
1  Cc1ccc(Sc2ccc(C(=O)c3ccccc3)cc2)cc1 [A-5, 4-(p-Tolylthio)benzophenone, reference compound]      13200 L/mol/cm
2  S=C(c1ccc(-c2ccccc2)cc1)c1ccc(-c2ccccc2)cc1      32880 L/mol/cm
3  CC(C)(C)c1ccc(Sc2ccc(C(=O)c3ccc(Sc4ccc(C(C)(C)C)cc4)cc3)cc2)cc1      31120 L/mol/cm
